- Test system: SN12C
- measurementNotes: NCI tumour cell line growth inhibition, 48 h
The source made the active and inactive calls. No stated cut-off is given here; in the data, active = GI50 up to about 1.1 µM and inactive = higher.
Your reply should match one of these outcome classes. active, inactive

Reference set (5 entries):
INSERT INTO measurements (molecule, measurementtarget, category) VALUES
  ('Cc1ccc([N+](=O)[O-])cc1NC(=O)/C(=N/NC(=S)NN)C1SC(=S)NC1=O (stereo unspecified)', 'SN12C', 'inactive'),
  ('CC1(CO)OC1COCc1ccccc1 (stereo unspecified)', 'SN12C', 'inactive'),
  ('CO[C@@H]1/C=C\C=C(/C)C(=O)NC2=CC(=O)C(NCCN(C)C)=C(C[C@@H](C)C[C@@H](OC)[C@@H](O)[C@H](C)/C=C(\C)[C@H]1OC(N)=O)C2=O', 'SN12C', 'active'),
  ('COc1ccc(C(=O)Cc2ccc(Cl)cc2)cc1OC', 'SN12C', 'inactive'),
  ('Cc1c2cc[n+](Cc3ccc(I)cc3)cc2c(C)c2c1[nH]c1ccccc12', 'SN12C', 'active');

Incoming: # outcome recorded in this test, key = `O=C(O)/C(=C\c1ccccc1)Cc1ccccc1`
Outgoing: inactive

Incoming: Per the records of this test, what outcome belongs to `O=C1NCN(c2ccccc2)C12CCN(CCCSc1ccc(F)cc1)CC2` ?
Outgoing: inactive

Incoming: Tell me the recorded outcome of this test for CCOC(=O)C1(Cc2ccccc2)CCCCCN1 (stereo unspecified) .
Outgoing: inactive

Incoming: Hi team, can someone confirm the assay call for `Nc1ncc(CN2CCCC2)c(-c2ccccc2O)n1` ?
Outgoing: inactive
